Exercise: for every item that follows, state its recorded Inhibition % at 1000 μM.
test system: β-Glucosidase (Almond); test: β-Glucosidase (almond) inhibition; assay type: biochemical; settings: 1000 μM
Quick reminder: number only, in %, skip the unit.

# lookup: Inhibition % at 1000 μM of CC(=O)NC[C@H]1N[C@@H](CO)[C@@H](O)[C@@H]1O [E-10a]
37.9

Name the recorded Inhibition % at 1000 μM for CC(=O)NC[C@H]1N[C@H](CO)[C@H](O)[C@H]1O [F-10b] .
19.8

Fill in: Inhibition % at 1000 μM of CC(=O)NC[C@@H]1N[C@@H](CO)[C@@H](O)[C@H]1O is ___
0

Which Inhibition % at 1000 μM is listed for CC(=O)NC[C@H]1N[C@H](CO)[C@H](O)[C@@H]1O ?
41.0

----------
biological target: β-Glucuronidase (E. coli) (Escherichia coli, UniProt P05804); construct: purchased Sigma-Aldrich Chemical Co; assay: β-Glucuronidase (E. coli) inhibition; format: biochemical; details: 1000 μM, read-out: Inhibition % at 1000 μM
Sequence (P05804 whole entry): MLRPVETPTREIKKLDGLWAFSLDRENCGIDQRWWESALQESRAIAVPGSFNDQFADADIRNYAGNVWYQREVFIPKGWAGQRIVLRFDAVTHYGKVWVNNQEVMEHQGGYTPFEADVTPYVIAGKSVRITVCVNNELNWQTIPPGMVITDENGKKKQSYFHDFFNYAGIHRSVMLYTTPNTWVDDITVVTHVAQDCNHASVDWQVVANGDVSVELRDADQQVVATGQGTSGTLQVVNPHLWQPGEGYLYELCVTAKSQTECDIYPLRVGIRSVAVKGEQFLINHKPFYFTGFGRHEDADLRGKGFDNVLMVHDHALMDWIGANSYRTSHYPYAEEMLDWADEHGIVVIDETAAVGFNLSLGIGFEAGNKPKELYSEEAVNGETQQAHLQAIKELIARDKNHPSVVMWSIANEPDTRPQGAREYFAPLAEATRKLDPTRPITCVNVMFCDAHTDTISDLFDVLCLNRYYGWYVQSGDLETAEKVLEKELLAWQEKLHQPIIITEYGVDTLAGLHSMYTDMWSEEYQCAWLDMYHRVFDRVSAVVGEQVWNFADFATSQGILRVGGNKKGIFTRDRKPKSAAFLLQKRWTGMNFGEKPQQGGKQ
Counter-ions that a name gives are not always drawn.
reported endpoint: inhibition at 1000 µM (%)
Answer with a number only, understood to be in %.

// inhibition at 1000 µM lookup, key: CC(=O)NC[C@@H]1N[C@@H](CO)[C@H](O)[C@H]1O [A-10]
0

Name the recorded inhibition at 1000 µM for CC(=O)NC[C@H]1N[C@H](CO)[C@H](O)[C@H]1O [F-10b] .
0

Requested read-out: inhibition at 1000 µM. Entry: CC(=O)NC[C@H]1N[C@H](CO)[C@@H](O)[C@@H]1O [4·HCl]
0.6

Looking for the measured inhibition at 1000 µM of CC(=O)NC[C@H]1N[C@@H](CO)[C@H](O)[C@@H]1O [G-10] , can you help?
0

Given CC(=O)NC[C@@H]1N[C@@H](CO)[C@@H](O)[C@@H]1O [E-10b] , state its recorded inhibition at 1000 µM.
0
